biological target: MAT2A homodimer (Homo sapiens); construct: inferred from Ni sepharose purification with imidazole elution; assay: MAT2A inhibition (biochemical, liberated phosphate, PiColorLock Gold); conditions: recombinant MAT2A homodimer; IC50 bin with Max Inh.; read-out: Enzyme Inhibition Bin
MEASURED_METRIC: IC50

CC(C)n1cc(C#N)c2nn(-c3ccc4nn(C)cc4c3)c(=O)c(-c3ccc(C4CC4)nc3)c21    < 1000 nM
Cc1ccc(-c2c(=O)n(-c3ccc4nn(C)cc4c3)nc3[nH]c(=O)n(CC4CC4)c23)cn1    < 100 nM
CC(=O)c1cn(CC2CC2)c2c(-c3ccc(C4CC4)nc3)c(=O)n(-c3ccc4nn(C)cc4c3)nc12    < 100 nM
Cn1cc2cc(-n3nc4ccn(CC5CC5)c4c(-c4ccc(OC(F)F)cc4)c3=O)ccc2n1    < 100 nM

---

target: MAT2A homodimer (Homo sapiens, UniProt P31153); construct: inferred from Ni sepharose purification with imidazole elution; made in house; host or cells: Sf9 insect cells, baculovirus (Bac to Bac, pFASTBAC1); test: MAT2A inhibition (biochemical, liberated phosphate, PiColorLock Gold); conditions: recombinant MAT2A homodimer; IC50 bin with Max Inh.; read-out: Enzyme Inhibition Bin
Sequence (P31153 whole entry): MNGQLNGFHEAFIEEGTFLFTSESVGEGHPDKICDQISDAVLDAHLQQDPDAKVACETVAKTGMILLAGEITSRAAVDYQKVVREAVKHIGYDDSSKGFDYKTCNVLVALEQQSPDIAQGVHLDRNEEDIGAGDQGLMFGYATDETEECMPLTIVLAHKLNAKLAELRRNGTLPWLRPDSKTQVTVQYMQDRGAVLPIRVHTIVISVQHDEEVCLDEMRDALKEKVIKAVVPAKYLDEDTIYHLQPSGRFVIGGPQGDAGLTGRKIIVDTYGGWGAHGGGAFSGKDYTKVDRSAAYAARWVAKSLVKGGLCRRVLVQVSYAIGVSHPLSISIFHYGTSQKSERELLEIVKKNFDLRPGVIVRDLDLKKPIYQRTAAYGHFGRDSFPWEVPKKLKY
pIC50: −log10 of the molar value.
Quick list: pIC50 per entry.
MEASURED_METRIC: pIC50

COc1ccc(-c2c(=O)n(-c3ccc4nn(C)cc4c3)nc3c(C)nn(CC4CC4)c23)cc1    > 7.00
C[C@H](O)c1cn(CC2CC2)c2c(-c3ccc(C4CC4)nc3)c(=O)n(-c3ccc4nn(C)cc4c3)nc12    > 7.00
Cc1ccc(-c2c(=O)n(-c3ccc4nn(C)cc4c3)nc3c(F)cn(CC4CC4)c23)cn1    > 7.00
Cn1cc2cc(-n3nc4c(C#N)cn(CC5CC5)c4c(-c4ccc(C5CC5)nc4)c3=O)ccc2n1    > 7.00

---

Each record here notes measured IC50.
Target: MAT2A homodimer (Homo sapiens, UniProt P31153)
Construct: inferred from Ni sepharose purification with imidazole elution
Assay: MAT2A inhibition (biochemical, liberated phosphate, PiColorLock Gold)
Conditions: recombinant MAT2A homodimer; IC50 bin with Max Inh.; read-out: Enzyme Inhibition Bin
Experimental: Mat2A protein was expressed by recombinant baculovirus in SF9 infected cells using the Bac to Bac system cloned into the pFASTBAC1 vector (Invitrogen, Carlsbad, Calif.). Recombinant MAT2A was isolated from the cell lysate of 150 g of infected cells using HP Ni sepharose column chromatography. […] Specific compounds disclosed herein were tested in the foregoing assay and they were determined to inhibit MAT2A with an IC50. […]
MEASURED_METRIC: IC50

Cn1cc2cc(-n3nc4ccn(CC5CC5)c4c(-c4cncc(Cl)c4)c3=O)ccc2n1    < 1000 nM
CC(C)Cn1cc(C#N)c2nn(-c3ccc4nn(C)cc4c3)c(=O)c(-c3ccc(C4CC4)nc3)c21    < 1000 nM
Cn1cc2cc(-n3nc4[nH]c(=O)n(CC5CC5)c4c(-c4ccc(C5CC5)cc4)c3=O)ccc2n1    < 100 nM
Cn1cc2cc(-n3nc4c(C(N)=O)cn(CC5CC5)c4c(-c4ccc(C5CC5)nc4)c3=O)ccc2n1    < 100 nM
Cn1cc2cc(-n3nc4c(c(CC5CC5)cn4C)c(-c4ccc(OC(F)F)cc4)c3=O)ccc2n1    < 100 nM
Cc1nc2nn(-c3ccc4nn(C)cc4c3)c(=O)c(-c3ccc(OC(F)F)cc3)c2n1CC1CC1    < 100 nM
Cn1cc2cc(-n3nc4cnn(CC5CC5)c4c(-c4ccc(OC(F)F)cc4)c3=O)ccc2n1    < 100 nM
CNS(=O)(=O)c1cn(CC2CC2)c2c(-c3ccc(C4CC4)cc3)c(=O)n(-c3ccc4nn(C)cc4c3)nc12    > 10000 nM
Cn1cc2cc(-n3nc4nnn(CC5CC5)c4c(-c4ccc(OC(F)F)cc4)c3=O)ccc2n1    < 100 nM
Cn1cc2cc(-n3nc4ncn(CC5CC5)c4c(-c4ccc(C5CC5)nc4)c3=O)ccc2n1    < 100 nM
CNS(=O)(=O)c1cn(CC2CC2)c2c(-c3ccc(C)nc3)c(=O)n(-c3ccc4nn(C)cc4c3)nc12    > 10000 nM
CNC(=O)c1cn(CC2CC2)c2c(-c3ccc(C4CC4)cc3)c(=O)n(-c3ccc4nn(C)cc4c3)nc12    < 100 nM
[2H]C([2H])([2H])Oc1ccc(-n2nc3c(C#N)cn(CC4CC4)c3c(-c3ccc(C)nc3)c2=O)cc1    < 100 nM
CNC(=O)c1cn(CC2CC2)c2c(-c3ccc(Cl)cc3)c(=O)n(-c3ccc4nn(C)cc4c3)nc12    < 100 nM
Cn1cc2cc(-n3nc4c(C(N)=O)cn(CC5CC5)c4c(-c4ccc(OC(F)F)cc4)c3=O)ccc2n1    < 100 nM
Cc1ccc(-c2c(=O)n(-c3ccc4nn(C)cc4c3)nc3c(C(N)=O)cn(CC4CC4)c23)cn1    < 100 nM
CCc1cn(CC2CC2)c2c(-c3ccc(C4CC4)nc3)c(=O)n(-c3ccc4nn(C)cc4c3)nc12    < 100 nM
Cc1cc2nn(-c3ccc4nn(C)cc4c3)c(=O)c(-c3ccc(C4CC4)nc3)c2n1CC1CC1    < 1000 nM
Cn1cc2cc(-n3nc4c(C#N)cn(CC5CCC5)c4c(-c4ccc(C5CC5)nc4)c3=O)ccc2n1    < 100 nM
[2H]C([2H])([2H])n1cc2cc(-n3nc4c(C#N)cn(CC5CC5)c4c(-c4ccc(C5CC5)nc4)c3=O)ccc2n1    < 100 nM
Cn1cc2cc(-n3nc4c(C#C[Si](C)(C)C)cn(CC5CC5)c4c(-c4ccc(C5CC5)nc4)c3=O)ccc2n1    < 100 nM
Cc1ccc(-c2c(=O)n(-c3ccc4nc(C)n(C)c4c3)nc3ccn(CC4CC4)c23)cn1    < 100 nM
Cn1cc2cc(-n3nc4c(c(-c5ccc(Cl)cc5)c3=O)n(CC3CC3)c(=O)n4C)ccc2n1    < 100 nM
CCCn1cc(C#N)c2nn(-c3ccc4nn(C)cc4c3)c(=O)c(-c3ccc(C4CC4)nc3)c21    < 100 nM
Cn1cc2cc(-n3nc4c(c(-c5ccc(C6CC6)cc5)c3=O)n(CC3CC3)c(=O)n4C)ccc2n1    < 100 nM
Cc1nc2ccc(-n3nc4c(C#N)cn(CC5CC5)c4c(-c4ccc(C5CC5)nc4)c3=O)cc2n1C    < 100 nM
[2H]C([2H])([2H])Oc1ccc(-n2nc3c(C#N)cn(CC4CC4)c3c(-c3ccc(C(F)F)nc3)c2=O)cc1    < 100 nM
COc1ccc(-c2c(=O)n(-c3ccc4nc(C)n(C)c4c3)nc3ncn(CC4CC4)c23)cc1    < 100 nM
CCCn1cc(C#N)c2nn(-c3ccc4nn(C)cc4c3)c(=O)c(-c3ccc(C)nc3)c21    < 100 nM

---

Listed below: IC50 values for each entry.
biological target: MAT2A homodimer (Homo sapiens, UniProt P31153); construct: inferred from Ni sepharose purification with imidazole elution; experiment: MAT2A inhibition (biochemical, liberated phosphate, PiColorLock Gold); conditions: recombinant MAT2A homodimer; IC50 bin with Max Inh.; read-out: Enzyme Inhibition Bin
MEASURED_METRIC: IC50

Cc1nn(CC2CC2)c2c(-c3ccc(C4CC4)cc3)c(=O)n(-c3ccc4nn(C)cc4c3)nc12    < 100 nM
CC(C)c1ccc(-c2c(=O)n(-c3ccc4nn(C)cc4c3)nc3c(C#N)cn(CC4CC4)c23)cn1    < 100 nM
Cn1cc2cc(-n3nc4c(c(-c5ccc(OC(F)F)cc5)c3=O)n(CC3CC3)c(=O)n4C)ccc2n1    < 100 nM
[2H]C([2H])([2H])Oc1ccc(-c2c(=O)n(-c3ccc4nn(C)cc4c3)nc3c(C(N)=O)cn(CC4CC4)c23)cc1    < 100 nM
[2H]C([2H])([2H])Oc1ccc(-c2c(=O)n(-c3ccc4nn(C)cc4c3)nc3[nH]c(=O)n(CC4CC4)c23)cc1    < 100 nM
O=c1c(-c2ccc(OC(F)F)cc2)c2c(ccn2CC2CC2)nn1-c1ccc2ncsc2c1    < 100 nM
Cn1cc2cc(-n3nc4c(C(=O)O)cn(CC5CC5)c4c(-c4ccc(C5CC5)nc4)c3=O)ccc2n1    < 1000 nM

---

target: MAT2A homodimer (Homo sapiens, UniProt P31153); construct: inferred from Ni sepharose purification with imidazole elution; assay: MAT2A inhibition (biochemical, liberated phosphate, PiColorLock Gold); settings: recombinant MAT2A homodimer; IC50 bin with Max Inh.; read-out: Enzyme Inhibition Bin
pIC50: −log10 of the molar value.
# maps each entry to its pIC50
MEASURED_METRIC: pIC50

[2H]C([2H])([2H])Oc1ccc(-c2c(=O)n(-c3ccc4nn(C)cc4c3)nc3c(C)nn(CC4CC4)c23)cc1    > 7.00
Cn1cc2cc(-n3nc4c(C#N)cn(CC5CC5)c4c(-c4ccc(OC(F)F)nc4)c3=O)ccc2n1    > 7.00
O=c1c(-c2ccc(OC(F)F)cc2)c2c(ccn2CC2CC2)nn1-c1cn[nH]c1    > 7.00
Nc1ccc(-n2nc3ccn(CC4CC4)c3c(-c3ccc(OC(F)F)cc3)c2=O)cc1    > 7.00
Cn1cc2cc(-n3nc4c(C#N)cn(CC5CC5)c4c(-c4ccc(C#N)cc4)c3=O)ccc2n1    > 7.00
COc1ccc(-c2c(=O)n(-c3ccc4nn(C)cc4c3)nc3c(C#N)cn(CC4CC4)c23)cn1    > 7.00
Cn1cc2cc(-n3nc4c(C(N)=O)cn(CC5CC5)c4c(-c4ccc(C5CC5)cc4)c3=O)ccc2n1    > 7.00
Cn1cc2cc(-n3nc4c(C#N)cn(CCC(F)(F)F)c4c(-c4ccc(C5CC5)nc4)c3=O)ccc2n1    > 7.00
CCc1ccc(-c2c(=O)n(-c3ccc4nc(C)n(C)c4c3)nc3c(C#N)cn(CC4CC4)c23)cn1    > 7.00
Cn1cc2cc(-n3nc4ncn(CC5CC5)c4c(-c4ccc(C5CC5)cc4)c3=O)ccc2n1    > 7.00
[2H]C([2H])([2H])Oc1ccc(-n2nc3c(C#N)cn(CC4CC4)c3c(-c3ccc(C4CC4)nc3)c2=O)cc1    > 7.00
Cc1ccc(-c2c(=O)n(-c3ccc4nn(C)cc4c3)nc3cnn(CC4CC4)c23)cn1    > 7.00
O=c1c(-c2ccc(OC(F)F)cc2)c2c(ccn2CC2CC2)nn1-c1ccncc1    > 7.00
Cn1cc2cc(-n3nc4c(C#N)cn(CC5CC5)c4c(-c4ccc(OC(F)F)cc4)c3=O)ccc2n1    > 7.00
Cn1cc2cc(-n3nc4c(C#N)cn(C[C@H]5CC5(F)F)c4c(-c4ccc(C5CC5)nc4)c3=O)ccc2n1    > 7.00
